- System: HOP-92
- assay protocol: NCI tumour cell line growth inhibition, 48 h
The source made the active and inactive calls. Rule as the data show it: active = GI50 up to about 1.1 µM and inactive = higher.
# key: entry, value: GI50

[
  {
    "compound": "C#C[C@]1(O)CC[C@H]2[C@@H]3CCC4=C/C(=N/OC(=O)c5cccc6cc7ccccc7nc56)CC[C@@H]4[C@H]3CC[C@@]21CC",
    "tested system": "HOP-92",
    "GI50": "> 100 µM (inactive)"
  },
  {
    "compound": "COc1ncc(C#CC(=O)c2ccccc2)c(OC)n1",
    "tested system": "HOP-92",
    "GI50": "2.15 µM (inactive)"
  },
  {
    "compound": "CSc1nc(C#N)c(N)n1C",
    "tested system": "HOP-92",
    "GI50": "> 100 µM (inactive)"
  },
  {
    "compound": "Nc1ccc(C(=O)NN2C(=O)C(Cl)C2c2ccc([N+](=O)[O-])cc2)cc1 (stereo not given)",
    "tested system": "HOP-92",
    "GI50": "17.5 µM (inactive)"
  },
  {
    "compound": "O=[N+]([O-])c1ccc2c(c1)S(=O)(=O)N1Cc3ccccc3CCN21",
    "tested system": "HOP-92",
    "GI50": "62.2 µM (inactive)"
  }
]

----------
- Tested on: UO-31
- assay protocol: NCI tumour cell line growth inhibition, 48 h
Active and inactive are the calls of the source. No stated cut-off is given here; in the data, active = GI50 up to about 1.1 µM and inactive = higher.
# key: entry, value: GI50
recorded endpoint: GI50

[
  {
    "compound": "COCC12CCC(OC)C34C5CC6(O)C(OC)CC(OC(C)=O)(C5C6OC(=O)c5ccccc5)C(C(OC)C13)C4N(C)C2 (stereo not given)",
    "test value": "> 100 µM (inactive)"
  },
  {
    "compound": "CCCCCCC(=O)C/C(CCC(=O)N(Cc1ccccc1)Cc1ccccc1)=N\\Nc1ccc([N+](=O)[O-])cc1[N+](=O)[O-]",
    "test value": "51.6 µM (inactive)"
  },
  {
    "compound": "O=C1CCCCCCCCCCC1CCCCCBr (stereo not given)",
    "test value": "26.1 µM (inactive)"
  },
  {
    "compound": "OC(CC1CCCCN1)c1ccc2c(c1)oc1ccccc12 (stereo not given)",
    "test value": "37.2 µM (inactive)"
  },
  {
    "compound": "CCOC(=O)C1=C(C)NC(=O)NC1c1ccc(OC)cc1OC (stereo not given)",
    "test value": "> 100 µM (inactive)"
  },
  {
    "compound": "O=C(Nc1ccc(Cl)c(Cl)c1)C(=O)C(C1OC(=O)c2ccccc21)[N+](=O)[O-] (stereo not given)",
    "test value": "> 100 µM (inactive)"
  },
  {
    "compound": "Nc1n[n+]([O-])c2ccccc2[n+]1[O-]",
    "test value": "> 100 µM (inactive)"
  },
  {
    "compound": "CCCc1c2c([nH]c(=O)c1C)C(=O)c1[nH]c(=O)c(C)c(CCC)c1C2=O",
    "test value": "56.4 µM (inactive)"
  },
  {
    "compound": "Cc1cc2c(SCc3ccccc3Cl)nc(N)nc2nc1C",
    "test value": "1.79 µM (inactive)"
  },
  {
    "compound": "Cc1cc2c(cc1Br)C1(C)CCC(C)C1(C)O2 (stereo not given)",
    "test value": "32.4 µM (inactive)"
  }
]
